Task for the reader: assign each of the following molecules its reported Growth inhibition rate (%) Corn.
System: corn (Zea mays L.)
run-description: Test Example 1: foliar treatment, growth inhibition rate on 14th day
Assay type: in vivo
experimental-conditions: active ingredient amount 31 g/ha, 14th day after application, visual, 0 = non-treated, 100 = complete kill
Answers are plain numbers, in %.

Check out these entries, answers already filled in.
Query: For the record Cc1ccc(Oc2cnc3cc(Cl)ccc3n2)cc1-c1c(OS(=O)(=O)C2CC2)c(C)nn(C)c1=O , what value of Growth inhibition rate (%) Corn is listed for corn (Zea mays L.)?
Result: 30

Query: Provide value of Growth inhibition rate (%) Corn for this record tested with corn (Zea mays L.): Cc1ccc(Oc2cnc3cc(Cl)ccc3n2)cc1-c1c(OC(=O)N(C)C)c(C)nn(C)c1=O
Result: 40

Query: Param readout= Growth inhibition rate (%) Corn; system= corn (Zea mays L.); entry= Cc1ccc(Oc2cnc3cc(Cl)ccc3n2)cc1-c1c(OC(=S)N(C)C)c(C)nn(C)c1=O ; returns value.
Result: 50

Others:
Query: Fill in the recorded Growth inhibition rate (%) Corn for this molecule, with corn (Zea mays L.) as test system: Cc1ccc(Oc2cnc3cc(Cl)ccc3n2)cc1-c1c(OC(=O)OCCCl)c(C)nn(C)c1=O
Result: 0

###

System: barnyardgrass (Echinochloa crus-qalli L.)
run-description: Test Example 1: foliar treatment, growth inhibition rate on 14th day
Format: in vivo
experimental-conditions: active ingredient amount 31 g/ha, 14th day after application
Method: Upland field soil was put into a 1/300,000 hectare pot, and seeds of various plants were sown. […] On the 14th day after the application, the state of growth of the respective plants was visually observed, and the herbicidal effect was evaluated by a growth inhibition rate (%) of 0 (equivalent to the non-treated area) to 100 (complete kill).
Kindly state Growth inhibition rate (%) Barnyardgrass for each of the entries shown.
Answers are plain numbers, in %.

Query: Which Growth inhibition rate (%) Barnyardgrass value is on record for CC(=O)Oc1c(C(F)(F)F)nn(C)c(=O)c1-c1cc(Oc2ncc(C(F)(F)F)cc2Cl)ccc1C [1-142] ?
Result: 90

Query: What does the data say about its Growth inhibition rate (%) Barnyardgrass? Entry: CC(=O)Oc1c(C)nn(C)c(=O)c1-c1cc(Oc2ncc(C#N)cc2Cl)ccc1C [Compound 2-60]
Result: 88

// input: 6 molecules below; output: Growth inhibition rate (%) Barnyardgrass for each
1. CCc1nn(C)c(=O)c(-c2cc(Oc3ncc(C(F)(F)F)cc3Cl)ccc2C)c1O [1-98]
2. Cc1ccc(Oc2nc3ccc(Cl)cc3o2)cc1-c1c(O)c(C)nn(C)c1=O [Compound 2-8]
3. Cc1ccc(Oc2cnc3cc(Cl)ccc3n2)cc1-c1c(OC(=O)c2cn(C)nc2C)c(C)nn(C)c1=O [Compound 3-43]
4. CC(=O)Oc1c(C)nn(C)c(=O)c1-c1cc(Oc2nc3ccc(Cl)cc3s2)ccc1C [Compound 2-132]
5. Cc1ccc(Oc2ncc(C(F)(F)F)cc2Cl)cc1-c1c(OC(C)OC(=O)OC(C)C)c(C)nn(C)c1=O (centres unmarked) [1-133]
6. CC(=O)Oc1cnn(C)c(=O)c1-c1cc(Oc2nc3cc(Cl)ccc3o2)ccc1C [Compound 2-174]

Result:
1. 88
2. 100
3. 100
4. 90
5. 88
6. 100

###

Tested on: wild oat (Avena fatua L.)
run-description: Test Example 1: foliar treatment, growth inhibition rate on 14th day
Type: in vivo
experimental-conditions: active ingredient amount 31 g/ha, 14th day after application, visual, 0 = non-treated, 100 = complete kill
Kindly state Growth inhibition rate (%) Wild oat for each of the entries shown.
Answers are plain numbers, in %.

Example cases with answers are listed next.
Query: Form field: Growth inhibition rate (%) Wild oat recorded for CCn1nc(C)c(OC(C)=O)c(-c2cc(Oc3cnc4cc(Cl)ccc4n3)ccc2C)c1=O with wild oat (Avena fatua L.) (enter value)
Result: 100

Query: Entry Cc1ccc(S(=O)(=O)Oc2c(C)nn(C)c(=O)c2-c2cc(Oc3cnc4cc(Cl)ccc4n3)ccc2C)cc1 , system wild oat (Avena fatua L.): what Growth inhibition rate (%) Wild oat was measured?
Result: 99

Query: Request body: readout Growth inhibition rate (%) Wild oat, system wild oat (Avena fatua L.), query Cc1ccc(Oc2cnc3cc(Cl)ccc3n2)cc1-c1c(OC(=O)CC(C)(C)C)c(C)nn(C)c1=O . Return the value.
Result: 60

Query: Request: Growth inhibition rate (%) Wild oat, test system wild oat (Avena fatua L.), entry Cc1ccc(Oc2cnc3cc(Cl)ccc3n2)cc1-c1c(OC(=O)Oc2ccc(F)cc2)c(C)nn(C)c1=O
Result: 99

Query: Find the measured Growth inhibition rate (%) Wild oat: item CCn1nc(C)c(O)c(-c2cc(Oc3cnc4cc(Cl)ccc4n3)ccc2C)c1=O , target or system wild oat (Avena fatua L.).
Result: 98

Could I get Growth inhibition rate (%) Wild oat for every one of these entries?
1. Cc1ccc(Oc2cnc3cc(Cl)ccc3n2)cc1-c1c(OC(=O)OC2CC(C)CCC2C(C)C)c(C)nn(C)c1=O (stereo not drawn)
2. Cc1ccc(Oc2cnc3cc(Cl)ccc3n2)cc1-c1c(OC(=O)N(C)c2ccccc2)c(C)nn(C)c1=O
3. Cc1ccc(Oc2cnc3cc(Cl)ccc3n2)cc1-c1c(OC(=O)OCCCl)c(C)nn(C)c1=O
4. COCC(=O)Oc1c(C)nn(C)c(=O)c1-c1cc(Oc2cnc3cc(Cl)ccc3n2)ccc1C
5. CCOC(=O)C(=O)Oc1c(C)nn(C)c(=O)c1-c1cc(Oc2cnc3cc(Cl)ccc3n2)ccc1C
6. CCCSC(=O)Oc1c(C)nn(C)c(=O)c1-c1cc(Oc2cnc3cc(Cl)ccc3n2)ccc1C
7. Cc1ccc(Oc2cnc3cc(Cl)ccc3n2)cc1-c1c(OS(=O)(=O)C(F)(F)F)c(C)nn(C)c1=O

Result:
[0, 50, 93, 100, 98, 99, 99]

###

Field: Growth inhibition rate (%) Barnyardgrass. Provide a value for each of the compounds that follow.
Tested on: barnyardgrass (Echinochloa crus-qalli L.)
run-description: Test Example 1: foliar treatment, growth inhibition rate on 14th day
Type: in vivo
experimental-conditions: active ingredient amount 31 g/ha, 14th day after application
Answers are plain numbers, in %.

Query: Entry Cc1ccc(Oc2cc(C(F)(F)F)c(C(F)(F)F)cn2)cc1-c1c(O)c(C)nn(C)c1=O : reported Growth inhibition rate (%) Barnyardgrass = ?
Result: 100

# per-item lookup of Growth inhibition rate (%) Barnyardgrass; items listed below
1. CC(=O)Oc1c(C)nn(C)c(=O)c1-c1cc(N(C)c2ncc(C(F)(F)F)cc2Cl)ccc1C
2. COCOc1c(C)nn(C)c(=O)c1-c1cc(Oc2cnc3cc(Cl)ccc3n2)ccc1C
3. Cc1ccc(Oc2ccc(C(F)(F)F)cn2)cc1-c1c(O)c(C)nn(C)c1=O

Result:
1. 93
2. 99
3. 85

###

Provide the recorded Growth inhibition rate (%) Soybean for the entries that follow.
Tested on: soybean (Glycine max Merr.)
run-description: Test Example 1: foliar treatment, growth inhibition rate on 14th day
Type: in vivo
experimental-conditions: active ingredient amount 31 g/ha, 14th day after application
One number for each entry, in %.

Recorded Growth inhibition rate (%) Soybean, per entry:
Query: So what does the record say about Growth inhibition rate (%) Soybean for CC(=O)Oc1c(C)nn(C)c(=O)c1-c1cc(Oc2nc3ccccc3o2)ccc1C [Compound 2-138] ?
Result: 0

Query: Growth inhibition rate (%) Soybean; subject: Cc1ccc(Oc2ccc(C(F)(F)F)cn2)cc1-c1c(O)c(C)nn(C)c1=O [Compound 2-3]
Result: 10

Query: Quick check: Growth inhibition rate (%) Soybean of Cc1ccc(Oc2ncc(C(F)(F)F)cc2Cl)cc1-c1c(OC(=O)c2nn(C)cc2C)c(C)nn(C)c1=O [1-136] ?
Result: 0

Query: What value of Growth inhibition rate (%) Soybean has been recorded for this entry: Cc1ccc(Nc2ncc(C(F)(F)F)cc2Cl)cc1-c1c(O)c(C)nn(C)c1=O [1-144]
Result: 20

Query: Would you mind telling me what Growth inhibition rate (%) Soybean value was observed for CCn1ncc(OC(C)=O)c(-c2cc(Oc3nc4ccc(Cl)cc4o3)ccc2C)c1=O [Compound 2-169] ?
Result: 40

Query: // Growth inhibition rate (%) Soybean lookup, key: CC(=O)Oc1c(C)nn(C)c(=O)c1-c1cc(Oc2nc3ccc(C)cc3s2)ccc1C [Compound 2-152]
Result: 0

Query: Would you mind telling me what Growth inhibition rate (%) Soybean value was observed for CCc1ccc(Oc2ncc(C(F)(F)F)cc2Cl)cc1-c1c(OC(C)=O)c(C)nn(C)c1=O [1-45] ?
Result: 10

Query: What measured Growth inhibition rate (%) Soybean goes with CC(=O)Oc1c(C)nn(C)c(=O)c1-c1cc(Oc2ncc(Cl)cc2Cl)ccc1C [Compound 2-128] ?
Result: 0

Query: Quick check: Growth inhibition rate (%) Soybean of Cc1ccc(Oc2cnc3cc(Cl)ccc3n2)cc1-c1c(OC(=O)c2ccccc2)c(C)nn(C)c1=O [Compound 3-38] ?
Result: 25

Next:
Query: Could you tell me which Growth inhibition rate (%) Soybean is on file for CC(=O)Oc1c(C)nn(C)c(=O)c1-c1cc(Oc2nc3ccc(Br)cc3s2)ccc1C [Compound 2-158] ?
Result: 0
